Sourced from patent US11584733B2

tested-target: Human recombinant HDAC3 (Homo sapiens, UniProt O15379)
Sequence (O15379 whole entry): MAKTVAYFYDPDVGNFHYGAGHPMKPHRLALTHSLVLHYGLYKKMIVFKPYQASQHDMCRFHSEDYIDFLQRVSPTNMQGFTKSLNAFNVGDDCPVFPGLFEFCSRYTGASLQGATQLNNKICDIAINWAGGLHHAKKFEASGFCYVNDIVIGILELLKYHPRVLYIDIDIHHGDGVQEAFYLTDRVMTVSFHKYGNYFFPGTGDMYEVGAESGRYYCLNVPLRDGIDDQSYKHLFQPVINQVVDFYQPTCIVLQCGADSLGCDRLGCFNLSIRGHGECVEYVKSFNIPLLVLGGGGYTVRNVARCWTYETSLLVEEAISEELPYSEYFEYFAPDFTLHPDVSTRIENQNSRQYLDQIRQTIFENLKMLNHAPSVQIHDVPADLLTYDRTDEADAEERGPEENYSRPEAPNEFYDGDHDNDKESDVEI
Sequence (Q9Y618 395-489 partner limits assumed): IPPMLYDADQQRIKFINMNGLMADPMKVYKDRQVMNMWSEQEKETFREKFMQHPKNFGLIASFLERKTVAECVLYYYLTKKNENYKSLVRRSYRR
test-summary: HDAC isomer assay, Fluor-de-Lys, HDAC3
Format: biochemical
assay-conditions: Example 6, FIG. 18; 2 mg/mL formulation in 5% DMSO/40% PEG 400/55% PBS; read-out: IC50 against HDAC3 protein
measured-quantity: pIC50
Quick note: pIC50 values are minus log10 of concentrations in mol/L.

Short answer for O=C(CCCCCCC(=O)Nc1cccc2c1CN(C1CCC(=O)NC1=O)C2=O)NO (stereo not shown) : pIC50 was 5.51

* * *

Tested on: MCF-7 breast cancer cells
test-summary: Cell Proliferation and Cytotoxicity Assay (CCK-8)
Type: cell-based
assay-conditions: Homo sapiens, MCF7; 48 hours incubation; FIG. 15; read-out: EC50 against MCF-7 breast cancer cells
measured-quantity: pEC50
Quick note: pEC50 values are minus log10 of concentrations in mol/L.

Short answer for O=C(CCCCCCC(=O)NC1CCC(=O)NC1=O)NO (stereo not shown) : pEC50 was 5.30
